Reference for the values: patent US4942234A

The following molecules are shown together with reported inhibition at 1 µM values.
- TARGET SYSTEM: limbic D-2 dopamine receptor (Rattus norvegicus, UniProt P61169)
- Sequence (P61169 whole entry): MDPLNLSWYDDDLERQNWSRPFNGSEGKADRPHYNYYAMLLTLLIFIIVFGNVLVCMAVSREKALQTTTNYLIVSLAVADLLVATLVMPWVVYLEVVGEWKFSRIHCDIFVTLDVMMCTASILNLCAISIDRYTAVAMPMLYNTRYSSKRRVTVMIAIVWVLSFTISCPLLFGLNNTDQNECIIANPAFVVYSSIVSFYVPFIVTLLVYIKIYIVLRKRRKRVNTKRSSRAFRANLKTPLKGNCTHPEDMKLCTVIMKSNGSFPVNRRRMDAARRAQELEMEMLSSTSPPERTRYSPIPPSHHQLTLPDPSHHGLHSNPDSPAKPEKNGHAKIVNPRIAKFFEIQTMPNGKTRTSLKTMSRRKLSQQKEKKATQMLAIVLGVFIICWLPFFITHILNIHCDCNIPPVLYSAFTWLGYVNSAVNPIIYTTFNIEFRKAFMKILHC
- PROCEDURE TEXT: inhibition of limbic D-2 dopamine receptor binding (3H-spiroperidol)
- CONDITION INFO: read-out: Limbic D-2 Binding Inhibition, % inhibition at 1 μM
Structures can show the parent of a compound that is named as a salt.
Form entry: value (%) — number only.

limbic D-2 dopamine receptor (Rattus norvegicus, UniProt P61169) / inhibition at 1 µM / O=C1C2C3CCC(O3)C2S(=O)(=O)N1CCCCC1CCN(c2ncccn2)CC1 (stereo not shown) [Example 2, hydrochloride, monohydrate] : value?
6

limbic D-2 dopamine receptor (Rattus norvegicus, UniProt P61169) / inhibition at 1 µM / Cl.O=C1C2C3CCC(O3)C2S(=O)(=O)N1CCCCc1ccncc1 (stereo not shown) [Example 1, hydrochloride] : value?
3

limbic D-2 dopamine receptor (Rattus norvegicus, UniProt P61169) / inhibition at 1 µM / O=C1C2C3CCC(O3)C2S(=O)(=O)N1CCCCC1CCN(c2cncc(Cl)n2)CC1 (stereo not shown) [Example 4, hydrochloride, hydrate] : value?
7

limbic D-2 dopamine receptor (Rattus norvegicus, UniProt P61169) / inhibition at 1 µM / CC1=C(C)CC2C(C1)C(=O)N(CCCCc1ccncc1)S2(=O)=O.Cl (stereo not shown) [Example 5, hydrochloride] : value?
56

###

- TARGET SYSTEM: limbic D-2 dopamine receptor (Rattus norvegicus, UniProt P61169)
- PROCEDURE TEXT: inhibition of limbic D-2 dopamine receptor binding (3H-spiroperidol)
- CONDITION INFO: read-out: Limbic D-2 Binding Inhibition, % inhibition at 1 μM
Counter-ions that a name gives are not always drawn.
The following compounds are shown together with reported inhibition at 1 µM values.
Form entry: value (%) — number only.

Examples with their reported inhibition at 1 µM follow.
INSERT INTO assay_data (compound, unit_symbol, reading) VALUES
  ('O=C1C2C3CCC(O3)C2S(=O)(=O)N1CCCCC1CCN(c2cnccn2)CC1 (stereo not drawn) [Example 6, hydrochloride, hemihydrate]', '%', 6),
  ('O=c1c2ccccc2[s+]([O-])n1CCCCc1ccncc1 (stereo not drawn) [Example 7, hydrochloride]', '%', 14);

Shifting focus to the compound that follows.
Requested field: inhibition at 1 µM. Item: Cl.O=C1C2C3C=CC(C3)C2S(=O)(=O)N1CCCCc1ccncc1 (stereo not drawn) [Example 3, hydrochloride]
1
